Below, each of the compounds is paired with its reported IC50 value.
- Test system: HepG2
- PROTOCOL DETAILS: Cytotoxicity against human HepG2 cells assessed as reduction in cell viability after 48 hrs by MTT assay
- Assay type: functional, cell-based
- MEASUREMENT CONTEXT: HepG2, 48 h

[
  {
    "COMPOUND": "CNC(=O)c1cc(Oc2ccc(NC(=O)Nc3ccc(Cl)c(C(F)(F)F)c3)cc2)ccn1 [SORAFENIB]",
    "ASSAY READOUT": "IC50",
    "RESULT": "8 µM"
  },
  {
    "COMPOUND": "C=C1C(=O)O[C@H]2C[C@@]3(C)[C@H](O)CCC(=C)[C@]3(O)C[C@H]12",
    "ASSAY READOUT": "IC50",
    "RESULT": "> 10 µM"
  },
  {
    "COMPOUND": "C=C1C(=O)O[C@@H]2CC(=C)[C@@H]3CC[C@@](C)(O)[C@@H]3C[C@H]12",
    "ASSAY READOUT": "IC50",
    "RESULT": "> 10 µM"
  }
]

Now look at this entry.
Measured on HepG2, C=C1C(=O)O[C@H]2C/C(C)=C/[C@H](OC(C)=O)CC(=C)[C@@H](O)C[C@H]12 has a documented IC50 of > 10 µM

----------
- Test system: HepG2
- PROTOCOL DETAILS: Cytotoxicity against human HepG2 cells assessed as reduction in cell viability after 48 hrs by MTT assay
- Format: functional, cell-based
- MEASUREMENT CONTEXT: HepG2, 48 h
Below, each of the compounds is paired with its reported IC50 value.

[
  {
    "CPD SMILES": "C=C1C(=O)O[C@@H]2C[C@H](C)[C@]3(/C=C/C(C)=O)O[C@@H]3C[C@H]12",
    "IC50": "> 10 µM"
  },
  {
    "CPD SMILES": "C=C1C(=O)O[C@@H]2C[C@@]3(C)CCCC(=C)[C@]3(O)C[C@H]12",
    "IC50": "> 10 µM"
  },
  {
    "CPD SMILES": "C=C1C(=O)O[C@@H]2C[C@]3(C)[C@@H](CCC(C)=O)[C@@H]3C[C@H]12",
    "IC50": "> 7.4 µM"
  },
  {
    "CPD SMILES": "C=C1C(=O)O[C@@H]2C[C@@]3(C)C=CC(=O)C(C)=C3C[C@H]12",
    "IC50": "> 10 µM"
  },
  {
    "CPD SMILES": "C=C1C(=O)O[C@@H]2C[C@]3(C)O[C@H](C[C@H]12)C(=C)CC[C@@H]3O",
    "IC50": "> 10 µM"
  }
]

IC50 measured on C=C1C[C@H]2OC(=O)C(=C)[C@H]2C[C@@H](O)C(=C)CCC1=O = > 10 µM

IC50 measured on C=C1C[C@@H](OC(C)=O)/C=C(\C)C[C@@H]2OC(=O)C(=C)[C@H]2C[C@@H]1OC(C)=O = > 10 µM

IC50 measured on C=C1C(=O)O[C@H]2C/C(C)=C/[C@H](OC(C)=O)C[C@@]3(CO3)C(=O)C[C@H]12 = 8.6 µM
